# System Tested: ΔF508-CFTR (Homo sapiens, UniProt P13569, DEL508-508)
# Sequence (P13569 with tags, fused parts or gaps DEL508-508): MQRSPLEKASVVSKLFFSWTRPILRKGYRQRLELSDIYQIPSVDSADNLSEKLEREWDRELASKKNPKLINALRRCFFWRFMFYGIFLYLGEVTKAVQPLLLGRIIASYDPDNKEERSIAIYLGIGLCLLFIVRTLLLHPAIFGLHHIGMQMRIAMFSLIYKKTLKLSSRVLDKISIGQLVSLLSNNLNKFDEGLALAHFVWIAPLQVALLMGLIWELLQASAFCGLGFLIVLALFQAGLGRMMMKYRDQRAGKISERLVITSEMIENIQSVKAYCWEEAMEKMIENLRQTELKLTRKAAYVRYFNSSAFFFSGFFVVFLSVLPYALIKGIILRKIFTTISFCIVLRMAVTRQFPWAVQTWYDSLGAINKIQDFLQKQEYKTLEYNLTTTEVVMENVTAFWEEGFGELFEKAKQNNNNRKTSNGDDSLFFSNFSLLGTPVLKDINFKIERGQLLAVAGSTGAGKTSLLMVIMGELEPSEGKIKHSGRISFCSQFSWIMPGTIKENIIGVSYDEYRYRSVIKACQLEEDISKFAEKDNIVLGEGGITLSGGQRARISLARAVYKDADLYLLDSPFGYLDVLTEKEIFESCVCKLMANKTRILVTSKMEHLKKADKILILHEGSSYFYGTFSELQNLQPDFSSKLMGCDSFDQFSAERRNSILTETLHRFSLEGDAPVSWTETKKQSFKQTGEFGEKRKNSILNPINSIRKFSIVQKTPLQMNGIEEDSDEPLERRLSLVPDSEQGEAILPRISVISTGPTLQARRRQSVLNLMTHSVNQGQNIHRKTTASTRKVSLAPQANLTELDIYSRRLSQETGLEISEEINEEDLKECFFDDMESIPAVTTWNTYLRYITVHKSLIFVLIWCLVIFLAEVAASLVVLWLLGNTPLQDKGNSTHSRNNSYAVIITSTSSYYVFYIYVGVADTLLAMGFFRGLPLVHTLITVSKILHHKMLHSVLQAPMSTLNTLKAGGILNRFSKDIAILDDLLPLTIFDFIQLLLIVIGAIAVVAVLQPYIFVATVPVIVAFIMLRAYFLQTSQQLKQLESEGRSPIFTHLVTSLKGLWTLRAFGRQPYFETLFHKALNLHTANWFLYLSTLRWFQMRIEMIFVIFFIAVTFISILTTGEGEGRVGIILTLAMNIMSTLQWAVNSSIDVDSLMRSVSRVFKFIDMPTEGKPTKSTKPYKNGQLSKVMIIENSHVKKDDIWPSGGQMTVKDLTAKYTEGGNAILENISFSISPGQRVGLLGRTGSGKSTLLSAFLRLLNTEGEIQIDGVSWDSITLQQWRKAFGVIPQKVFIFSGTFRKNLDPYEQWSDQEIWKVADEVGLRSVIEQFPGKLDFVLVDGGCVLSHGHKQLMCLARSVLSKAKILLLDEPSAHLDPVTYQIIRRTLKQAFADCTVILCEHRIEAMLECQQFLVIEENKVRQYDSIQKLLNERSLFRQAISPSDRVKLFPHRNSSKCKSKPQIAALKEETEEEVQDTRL
# Format: cell-based
# Parameters: which was then ligated into full length pNUT-CFTR linearized using Hpa1 and Pml1; expressed in transfected cells
# Experimental Setup: Prestwick library, initial corrector assay; standard deviations above untreated controls
Where a name gives a salt, the structure may show the parent alone.
Experimental Readout: hit in screen (score)
Reply with just the number.

// below: answered compounds
{"Compound": "C[C@]12CC[C@@H]3c4ccc(OS(=O)(=O)O)cc4CC[C@H]3[C@@H]1CCC2=O [Estropipate]", "System Tested": "ΔF508-CFTR (Homo sapiens, UniProt P13569, DEL508-508)", "hit in screen (score)": 1.0}
{"Compound": "CCN1C[C@]2(COC)CC[C@H](O)[C@@]34C5C[C@@H]6[C@@H](OC)C[C@](O)(C(CC23)C14)C5[C@H]6OC(C)=O (stereo partly drawn)", "System Tested": "ΔF508-CFTR (Homo sapiens, UniProt P13569, DEL508-508)", "hit in screen (score)": 1.6}
{"Compound": "CN(C)CCOC(=O)COc1ccc(Cl)cc1.Cl [Meciofenoxate hydrochloride]", "System Tested": "ΔF508-CFTR (Homo sapiens, UniProt P13569, DEL508-508)", "hit in screen (score)": 1.1}
{"Compound": "CN(Cc1cnc2nc(N)nc(N)c2n1)c1ccc(C(=O)N[C@@H](CCC(=O)O)C(=O)O)cc1 (racemic) [Amethopterin (R, S)]", "System Tested": "ΔF508-CFTR (Homo sapiens, UniProt P13569, DEL508-508)", "hit in screen (score)": 1.2}
{"Compound": "C#CCN(C)CCCOc1ccc(Cl)cc1Cl [Clorgyline hydrochloride]", "System Tested": "ΔF508-CFTR (Homo sapiens, UniProt P13569, DEL508-508)", "hit in screen (score)": 1.0}
{"Compound": "c1ccc2[nH]c(-c3cscn3)nc2c1", "System Tested": "ΔF508-CFTR (Homo sapiens, UniProt P13569, DEL508-508)", "hit in screen (score)": 1.0}

query: hit in screen (score) lookup needed for c1ccc2c(c1)OCC(C1=NCCN1)O2 (stereo not drawn) [Idazoxan hydrochloride] , thanks.
result: 1.0

query: hit in screen (score) lookup needed for OCC(O)CN1CCN(c2ccccc2)CC1 (racemic) [Dropropizine (R, S)] , thanks.
result: 1.2

query: hit in screen (score) lookup needed for N[C@H]1CONC1=O [(S)-(−)-Cycloserine] , thanks.
result: 1.4

query: hit in screen (score) lookup needed for CC(=O)c1ccc(S(=O)(=O)NC(=O)NC2CCCCC2)cc1 [Acetohexamide] , thanks.
result: 1.0

query: hit in screen (score) lookup needed for Cc1scc2c1N(C(=O)CN1CCN(C)CC1)c1ccccc1NC2=O [Telenzepine dihydrochloride] , thanks.
result: 1.3

query: hit in screen (score) lookup needed for CC[C@@H](CO)NC(=O)[C@@H]1C=C2c3cccc4[nH]cc(c34)C[C@H]2N(C)C1 [Methylergometrine maleate] , thanks.
result: 1.1

query: hit in screen (score) lookup needed for CCOC(=O)n1ccn(C)c1=S , thanks.
result: 1.0

query: hit in screen (score) lookup needed for Nc1ccc(S(=O)(=O)c2ccc(N)cc2)cc1 , thanks.
result: 1.1

query: hit in screen (score) lookup needed for NC(=O)N1c2ccccc2C=Cc2ccccc21 , thanks.
result: 1.1

query: hit in screen (score) lookup needed for COC1=CC(=O)O[C@@H](/C=C/c2ccccc2)C1 , thanks.
result: 1.1

query: hit in screen (score) lookup needed for C[C@]12C[C@H](O)[C@H]3[C@@H](CCC4=CC(=O)CC[C@@]43C)[C@@H]1CC[C@@H]2C(=O)CO , thanks.
result: 1.1

query: hit in screen (score) lookup needed for CC(C)(C)NCC(O)c1ccc(O)c(CO)c1 (stereo not drawn) , thanks.
result: 1.0

query: hit in screen (score) lookup needed for CC1=CC(=O)C2=C(C)C[C@H](O)[C@@H]3[C@H](OC(=O)[C@H]3C)[C@H]12 [Austricine hydrate] , thanks.
result: 1.1

query: hit in screen (score) lookup needed for Nc1ncnc2c1ncn2[C@@H]1O[C@H](COP(=O)(O)O)[C@@H](O)[C@H]1O.O [Adenosine 5′-monophosphate monohydrate] , thanks.
result: 1.1

query: hit in screen (score) lookup needed for C[C@]12CCC(=O)C=C1CC[C@@H]1[C@@H]2[C@@H](O)C[C@@]2(C)[C@H]1CC[C@]2(O)C(=O)CO [Hydrocortisone base] , thanks.
result: 1.1

query: hit in screen (score) lookup needed for O=C(OCC(O)CO)c1ccccc1Nc1ccnc2cc(Cl)ccc12 (stereo not drawn) [Glafenine hydrochloride] , thanks.
result: 1.3

query: hit in screen (score) lookup needed for CC[C@H]1OC(=O)[C@H](C)[C@@H](O[C@H]2C[C@@](C)(OC)[C@@H](O)[C@H](C)O2)[C@H](C)[C@@H](O[C@@H]2O[C@H](C)C[C@H](N(C)C)[C@H]2O)[C@](C)(O)C[C@@H](C)/C(=N\OCOCCOC)[C@H](C)[C@@H](O)[C@]1(C)O , thanks.
result: 1.2

query: hit in screen (score) lookup needed for c1ccc(CNc2ncnc3[nH]cnc23)cc1 , thanks.
result: 1.6
